# assay_overview: protein stability index of a GFP-peptide fusion (yeast GPS) (PSI 1-4); higher = more stable; sorted into four equal gates, so the index is relative within each strain
# condition_info: pdr5∆
Give TRUE when the value for protein stability index is at least 2. Give FALSE when it is less.

Study these solved cases before continuing.
{"columns": ["residue_string", "class_assignment"],
 "data": [
  ["EPDREKIKLLTQATSED [RPC19]", "TRUE"],
  ["LTRQPTEGRSRDGGLRL [RET1]", "TRUE"],
  ["KPAFSFGINTNTTKTAD [YLR335W/NUP2]", "TRUE"],
  ["ATSKTSEMLAKYSDILL [CDC53]", "TRUE"],
  ["GISSTLVSANNDNNSPH [YLR018C/POM34]", "TRUE"]
]}

Turning now to a further record.
Check this sequence for protein stability index at or above 2: DEIDAALDFRNVSIVAN [SMC4]
FALSE

----------
# assay_overview: protein stability index of a GFP-peptide fusion (yeast GPS) (PSI 1-4); higher = more stable; sorted into four equal gates, so the index is relative within each strain
# condition_info: san1∆
recorded_endpoint: protein stability index
Please reply with the value in numeric form only.

Worked cases, answers included:
{"columns": ["residue_string", "protein stability index"],
 "data": [
  ["APNNSNGGSEEEITCAL [MED7]", 3.42],
  ["EDMIDQVSKKLSSIEAS [SMC3]", 2.84],
  ["TSLFHKFILSGFIFTSM [RRI2]", 1.94],
  ["NDDKKTEPDKPAFSFNS [YJL041W/NSP1]", 3.07],
  ["SIMVELKLPLEINYAFS [SIR3]", 1.55]
]}

Tell me the measured protein stability index of DSYLDADKELSFEINVK [BRR2] , please.
3.08

Tell me the measured protein stability index of QVPQVRSMSGQPPTNVQ [SNF5] , please.
3.06

Tell me the measured protein stability index of RIIEKSVRRSGALDVEG [RRP45] , please.
2.47

Tell me the measured protein stability index of SVQNLDQLLTDLIETSF [NUT1] , please.
2.94

Tell me the measured protein stability index of YAIKKKDELERVAKSNR [RPS5] , please.
3.44

Tell me the measured protein stability index of LQLIIFLRTQFLKLYVL [RGR1] , please.
1.53

Tell me the measured protein stability index of EHIKEGSEIAISSLGYR [SWI3] , please.
2.99

Tell me the measured protein stability index of IYNGKAFNQVEIRPEML [RPS15] , please.
3.39

Tell me the measured protein stability index of GNVLLNATVVDSFKYEP [YLR335W/NUP2] , please.
3.05

----------
# assay_overview: protein stability index of a GFP-peptide fusion (yeast GPS) (PSI 1-4); higher = more stable; sorted into four equal gates, so the index is relative within each strain
# condition_info: doa10∆
Give 1 when the value for protein stability index is at least 2. Give 0 when it is less.

{"columns": ["residue_string", "class_assignment"],
 "data": [
  ["SQPTAAGGPDMTTPQNI [DSN1]", 0],
  ["LILIPGETMWVPIKSSK [RPN13]", 1],
  ["SIFEDAIKELNYNRIAK [NUT1]", 1],
  ["SDSNANAAVAGVANTDT [SWI3]", 1],
  ["SKEDYETLKRDRKQSQA [ARP7]", 1]
]}

Check this sequence for protein stability index at or above 2: GVANTDTAGEESQQQDE [SWI3]
1

Check this sequence for protein stability index at or above 2: STNESNKSISDEITEDM [SSN2]
1

Check this sequence for protein stability index at or above 2: VLEFCKDYEAKTKAMSL [POP1]
1

Check this sequence for protein stability index at or above 2: FVDENTFQRVCQYMVAC [RPN1]
1

Check this sequence for protein stability index at or above 2: QCLRFLKETVIPSLANN [POP6]
0

Check this sequence for protein stability index at or above 2: TGEFDFEAAVKMSDGFN [RPT4]
1
